assay: Nanoparticle diameter and polydispersity by dynamic light scattering (Malvern Zetasizer); assay type: physicochemical; settings: N/P = 10
ATTRIBUTE_MEASURED: Polydispersity of siRNA-lipid complexes
Reply with just the number.

For the compound CCCCC/C=C\C/C=C\CCCCCCCC(=O)NC(CS)C(=O)NC(Cc1cnc[nH]1)C(=O)NCCNC(=O)CCN(CCN)CCC(=O)NCCNC(=O)C(Cc1cnc[nH]1)NC(=O)C(CS)NC(=O)CCCCCCC/C=C\C/C=C\CCCCC (stereo not shown) [EHCLn] , what Polydispersity of siRNA-lipid complexes is on record?
0.112

Item: CCCCCCCC/C=C\CCCCCCCC(=O)NC(CS)C(=O)NCCNC(=O)CCN(CCCNCCCCNCCCN)CCC(=O)NCCNC(=O)C(CS)NC(=O)CCCCCCC/C=C\CCCCCCCC (stereo not shown) [SCO]
0.158

Item: CCCCC/C=C\C/C=C\CCCCCCCC(=O)NC(CS)C(=O)NC(Cc1cnc[nH]1)C(=O)NCCNC(=O)CCN(CCCNCCCCNCCCN)CCC(=O)NCCNC(=O)C(Cc1cnc[nH]1)NC(=O)C(CS)NC(=O)CCCCCCC/C=C\C/C=C\CCCCC (stereo not shown) [SHCLn]
0.114

Item: CCCCCCCC/C=C\CCCCCCCC(=O)NC(CS)C(=O)NC(Cc1cnc[nH]1)C(=O)NCCNC(=O)CCN(CCN)CCC(=O)NCCNC(=O)C(Cc1cnc[nH]1)NC(=O)C(CS)NC(=O)CCCCCCC/C=C\CCCCCCCC (stereo not shown) [EHCO]
0.122

Item: CCCCCCCC/C=C\CCCCCCCC(=O)NC(CS)C(=O)NC(Cc1cnc[nH]1)C(=O)NCCNC(=O)CCN(CCCNCCCCNCCCN)CCC(=O)NCCNC(=O)C(Cc1cnc[nH]1)NC(=O)C(CS)NC(=O)CCCCCCC/C=C\CCCCCCCC (stereo not shown) [SHCO]
0.154

Item: CCCCCCCC/C=C\CCCCCCCC(=O)N[C@@H](CS)C(=O)NCCNC(=O)CCN(CCN)CCC(=O)NCCNC(=O)[C@H](CS)NC(=O)CCCCCCC/C=C\CCCCCCCC [ECO]
0.136

Item: CCCCC/C=C\C/C=C\CCCCCCCC(=O)NC(CS)C(=O)NCCNC(=O)CCN(CCCNCCCCNCCCN)CCC(=O)NCCNC(=O)C(CS)NC(=O)CCCCCCC/C=C\C/C=C\CCCCC (stereo not shown) [SCLn]
0.184
